The reported numbers originate from patent US20030176334A1.

Reported IC50 values for a set of binders
biological target: T1, integrin αvβ3 (vitronectin receptor), purified and immobilized (UniProt P06756 31-1048; P05106 27-788); assay: competition, vitronectin (VN) binding to immobilized αvβ3; individual assay
T1 construct: Purified integrin coated at 50 ng per well; also called αvβ3 receptor
T1 sequence (P06756 31-1048, form in doubt, chain 1 of 2): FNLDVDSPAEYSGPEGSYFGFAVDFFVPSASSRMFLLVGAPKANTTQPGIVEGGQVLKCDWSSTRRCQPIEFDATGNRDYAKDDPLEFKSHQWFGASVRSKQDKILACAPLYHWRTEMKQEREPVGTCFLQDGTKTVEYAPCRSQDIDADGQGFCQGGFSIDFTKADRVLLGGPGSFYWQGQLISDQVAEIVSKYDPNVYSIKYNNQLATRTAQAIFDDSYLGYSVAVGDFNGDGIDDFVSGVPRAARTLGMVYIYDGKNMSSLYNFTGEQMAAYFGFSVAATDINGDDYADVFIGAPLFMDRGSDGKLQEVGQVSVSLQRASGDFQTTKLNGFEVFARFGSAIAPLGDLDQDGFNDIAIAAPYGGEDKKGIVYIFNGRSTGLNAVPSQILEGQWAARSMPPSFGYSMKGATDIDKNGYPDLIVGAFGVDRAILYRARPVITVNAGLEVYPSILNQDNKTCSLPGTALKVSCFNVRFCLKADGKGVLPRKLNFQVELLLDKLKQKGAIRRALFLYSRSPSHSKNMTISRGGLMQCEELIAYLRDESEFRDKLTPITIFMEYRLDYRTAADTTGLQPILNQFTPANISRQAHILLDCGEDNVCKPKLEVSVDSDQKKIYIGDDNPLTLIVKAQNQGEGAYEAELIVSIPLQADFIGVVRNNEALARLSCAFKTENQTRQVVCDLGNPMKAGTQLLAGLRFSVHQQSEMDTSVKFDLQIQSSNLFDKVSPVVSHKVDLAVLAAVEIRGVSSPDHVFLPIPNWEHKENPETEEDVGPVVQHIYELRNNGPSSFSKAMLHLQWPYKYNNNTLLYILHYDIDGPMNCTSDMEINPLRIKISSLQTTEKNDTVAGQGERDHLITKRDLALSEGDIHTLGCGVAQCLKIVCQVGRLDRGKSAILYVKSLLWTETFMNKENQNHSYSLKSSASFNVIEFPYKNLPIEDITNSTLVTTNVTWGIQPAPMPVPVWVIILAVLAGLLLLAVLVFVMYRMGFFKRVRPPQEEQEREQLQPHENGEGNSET
T1 sequence (P05106 27-788, form in doubt, chain 2 of 2): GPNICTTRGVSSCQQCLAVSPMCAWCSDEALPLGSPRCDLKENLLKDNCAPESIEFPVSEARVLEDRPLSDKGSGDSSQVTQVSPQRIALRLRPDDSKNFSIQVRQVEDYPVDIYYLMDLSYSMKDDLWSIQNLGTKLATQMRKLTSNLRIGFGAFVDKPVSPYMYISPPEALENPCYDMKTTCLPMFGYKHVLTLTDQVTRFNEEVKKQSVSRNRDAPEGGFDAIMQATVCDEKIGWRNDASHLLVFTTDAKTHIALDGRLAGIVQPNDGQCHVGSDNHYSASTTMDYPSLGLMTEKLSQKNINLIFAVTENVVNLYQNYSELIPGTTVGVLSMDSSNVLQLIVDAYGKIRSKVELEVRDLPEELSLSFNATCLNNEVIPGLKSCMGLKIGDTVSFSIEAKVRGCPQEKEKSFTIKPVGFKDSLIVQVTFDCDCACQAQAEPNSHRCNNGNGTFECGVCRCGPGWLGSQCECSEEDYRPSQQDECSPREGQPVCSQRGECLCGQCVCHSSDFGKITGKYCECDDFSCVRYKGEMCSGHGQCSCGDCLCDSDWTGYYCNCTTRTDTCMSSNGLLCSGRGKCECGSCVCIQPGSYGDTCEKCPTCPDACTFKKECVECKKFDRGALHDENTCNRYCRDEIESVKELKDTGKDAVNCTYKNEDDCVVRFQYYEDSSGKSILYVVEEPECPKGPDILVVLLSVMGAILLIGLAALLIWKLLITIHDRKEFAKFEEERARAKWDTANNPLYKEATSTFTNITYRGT

# example entries with known answers
Binder: GVVRNNEALARLS (Linear synthetic peptide; also called αv-derived amino acid residues 655-667) [peptide 62503, GVVRNNEALARLS]
IC50: > 100 µM
--
Binder: TDVNGDGRHDL (Linear synthetic peptide; also called αIIb-derived amino acid residues 296-306) [peptide 62502, TDVNGDGRHDL]
IC50: > 100 µM
--
Binder: TRQVVCDLGNPM (Linear synthetic peptide; also called αv-derived amino acid residues 676-687) [peptide 62411, TRQVVCDLGNPM]
IC50: > 100 µM

YTAECKPQVTRGDVF (Linear synthetic peptide; also called VN-derived amino acid residues 35-49) [peptide 62880, YTAECKPQVTRGDVF] yielded IC50 of 0.5 µM
